For each of the compounds below, state its TRZ AW rating.
# Tested on: Triticum aestivum
# testMethodNotes: Preemergence herbicidal activity (Example 67)
# Format: in vivo
# recordedConditions: pre, 800 g/ha

Examples with their reported TRZ AW rating follow.
# compound, readoutType, result
rows = [
    ("COc1ccc(-c2nc(C(=O)NC(C)c3cccs3)ns2)cc1 (racemic) [Example 51]", "TRZ AW rating", "2 (6-15%)"),
    ("COc1ccc(-c2nsc(C(=O)NC(C)c3ccsc3)n2)cc1 (racemic) [Example 61]", "TRZ AW rating", 0),
    ("C[C@H](NC(=O)c1nsc(-c2ccccc2F)n1)c1ccccc1 [Example 56]", "TRZ AW rating", 0),
    ("C[C@H](NC(=O)c1nsc(-c2ccc(F)cc2)n1)c1ccccc1 [Example 40]", "TRZ AW rating", 0),
    ("C[C@H](NC(=O)c1nc(-c2cccc(Cl)n2)ns1)c1ccccc1 [Example 46]", "TRZ AW rating", "1 (1-5%)"),
]

Look up TRZ AW rating for the entries below, preserving their order.
1. O=C(NCc1cccs1)c1nc(-c2ccccc2F)ns1 [Example 50]
2. O=C(NCc1cccs1)c1nsc(-c2ccccc2)n1 [Example 49]

0
0

Look up TRZ AW rating for the entries below, preserving their order.
1. O=C(Nc1ccccc1)c1nsc(-c2cccc(C(F)(F)F)c2)n1 [Example 64]
2. CC(NC(=O)c1nc(-c2cccc(Cl)n2)ns1)c1cccs1 (racemic) [Example 47]
3. COc1ccc(-c2nsc(C(=O)NC3CCCc4ccccc43)n2)cc1 (racemic) [Example 54]

1: 2 (6-15%); 2: 0; 3: 0

Look up TRZ AW rating for the entries below, preserving their order.
1. Cc1ccc(-c2nc(C(=O)NC(C)c3cccs3)ns2)cc1 (racemic) [Example 41]
2. COc1ccc(-c2nsc(C(=O)Nc3cccc4c3CCCC4)n2)cc1 [Example 55]
3. O=C(NCc1cccs1)c1nc(-c2cccc(F)c2)ns1 [Example 44]
4. CC(NC(=O)c1nc(-c2c(F)cccc2F)ns1)c1cccs1 (racemic) [Example 58]

0
0
0
0

Look up TRZ AW rating for the entries below, preserving their order.
1. C[C@H](NC(=O)c1nc(-c2cccc(F)c2)ns1)c1ccccc1 [Example 45]
2. C[C@H](NC(=O)c1nc(-c2c(F)cccc2F)ns1)c1ccccc1 [Example 59]

1: 0; 2: 0

Look up TRZ AW rating for the entries below, preserving their order.
1. O=C(NC1CCCc2ccccc21)c1nc(-c2ccccc2F)ns1 (racemic) [Example 53]
2. O=C(Nc1ccc(F)cc1F)c1nsc(-c2cccc(C(F)(F)F)c2)n1 [Example 62]

1: 1 (1-5%); 2: 0

* * *

# System: Avena fatua
# testMethodNotes: Herbicidal activity, postemergence test (Example 66)
# Type: in vivo
# recordedConditions: post; 1000 g/ha; assessed visually twenty days after spraying
For each of the molecules below, state its herbicidal effects on a 0-9 scale, AVEFA.
Give bare numbers.

Examples with their reported herbicidal effects on a 0-9 scale, AVEFA follow.
# molecule, quantitativeResult
data = [
    ("C[C@H](NC(=O)c1nc(C(C)(C)C)ns1)c1ccccc1", 6),
    ("C[C@H](NC(=O)c1nc(-c2ccccc2)ns1)c1ccccc1", 6),
    ("CC(C)Cc1nsc(C(=O)NC(C)c2cccs2)n1 (racemic)", 2),
    ("CC(NC(=O)c1nsc(-c2ccccc2)n1)c1cccs1 (racemic)", 4),
]

Look up herbicidal effects on a 0-9 scale, AVEFA for the entries below, preserving their order.
1. CC(NC(=O)c1nc(-c2ccccc2)ns1)c1cccs1 (racemic)
2. C[C@H](NC(=O)c1nc(-c2ccc(F)cc2)ns1)c1ccccc1
3. CC(C)Cc1nsc(C(=O)N[C@@H](C)c2ccccc2)n1
4. O=C(NCc1cccs1)c1nc(-c2ccc(F)cc2)ns1
5. CC(C)c1nsc(C(=O)NC(C)c2cccs2)n1 (racemic)
6. CC(C)CNC(=O)c1nc(-c2ccc(F)cc2)ns1
7. C=CCNC(=O)c1nc(-c2ccc(F)cc2)ns1

1: 5; 2: 7; 3: 5; 4: 0; 5: 5; 6: 0; 7: 2
